Let's look at some compounds and their measured UI.
- Test Protocol: Ulcerogenicity in albino rat assessed as severity of gastric lesions at 10 mg/kg, po administered as single dose after 18 hrs of starvation challenge and measured after 4 hrs
- Assay type: toxicity, organism-based
- Condition Details: in vivo
Lab note: write the figure by itself, no unit.

Use these answered entries as a reference point.
{"columns": ["Mol", "UI"],
 "data": [
  ["Cc1cccc(/C=C/C2=NNC(=O)CC2)c1", 0.4],
  ["COc1ccccc1/C=C/c1ccc(=O)n(-c2ccc(F)cc2)n1", 0],
  ["Cc1ccc(-c2cc(C(F)(F)F)nn2-c2ccc(S(N)(=O)=O)cc2)cc1", 6.2],
  ["O=C1CCC(/C=C/c2cccnc2)=NN1", 0],
  ["Cc1cccc(/C=C/c2ccc(=O)[nH]n2)c1", 0]
]}

Kindly review the next compound as well.
Which UI value is on record for COc1ccc2c(c1)c(CC(=O)O)c(C)n2C(=O)c1ccc(Cl)cc1 ?
12.4
